IC50 reference
- Tested on: BEL-7402
- TEST_DESCRIPTION: MTT cell viability assay, human hepatoma carcinoma BEL-7402 cells
- Type: cell-based
- CONDITION_DESCRIPTION: 24 h treatment, concentration inhibiting cancer cell replication by 50%, tested up to 100 μM

# COMPOUND, SYSTEM, IC50
data = [
    ("CCn1ncc2c(NNS(=O)(=O)c3ccc([N+](=O)[O-])cc3)ncnc21 [Compound 5b]", "BEL-7402", "> 100 µM"),
    ("CCn1ncc2c(NNS(=O)(=O)c3ccc(Br)cc3)ncnc21 [Compound 5d]", "BEL-7402", "> 100 µM"),
    ("CCn1ncc2c(NNS(=O)(=O)c3ccc(C)cc3)ncnc21 [Compound 5a]", "BEL-7402", "> 100 µM"),
    ("CCn1ncc2c(NN)ncnc21 [Compound 4]", "BEL-7402", "25.5 µM"),
    ("CCn1ncc2c(N(NC(=O)c3ccccc3)C(=O)c3ccccc3)ncnc21 [Compound 5f]", "BEL-7402", "> 100 µM"),
    ("CCn1ncc2c(NNC(=O)CCl)ncnc21 [Compound 5g]", "BEL-7402", "> 100 µM"),
    ("CCn1ncc2c(NNC(C)=O)ncnc21 [Compound 5e]", "BEL-7402", "> 100 µM"),
    ("CCn1ncc2c(Cl)ncnc21 [Compound 3]", "BEL-7402", "> 100 µM"),
    ("C=CCNC1=C2C[C@@H](C)C[C@H](OC)[C@H](O)[C@@H](C)/C=C(\\C)[C@H](OC(N)=O)[C@@H](OC)/C=C\\C=C(/C)C(=O)NC(=CC1=O)C2=O [Compound 17-AAG, reference compound]", "BEL-7402", "12.4 µM"),
]
